Data credit: patent US20170007610A1

# study target: kappa opioid receptor (Homo sapiens, UniProt P41145)
# Construct: grown in complete Ham's F-12 medium
# Sequence (P41145 whole entry): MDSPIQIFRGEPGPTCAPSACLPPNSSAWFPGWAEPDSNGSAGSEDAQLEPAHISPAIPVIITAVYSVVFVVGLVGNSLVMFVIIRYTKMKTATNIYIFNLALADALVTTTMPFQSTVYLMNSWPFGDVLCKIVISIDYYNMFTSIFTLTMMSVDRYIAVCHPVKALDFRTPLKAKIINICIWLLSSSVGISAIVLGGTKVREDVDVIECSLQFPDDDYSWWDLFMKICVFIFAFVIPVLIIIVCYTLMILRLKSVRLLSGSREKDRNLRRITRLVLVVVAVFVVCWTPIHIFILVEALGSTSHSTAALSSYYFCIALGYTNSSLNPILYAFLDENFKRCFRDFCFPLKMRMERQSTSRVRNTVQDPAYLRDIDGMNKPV
# experiment notes: Invitro KOR agonistic activity, cAMP based functional assay
# Assay type: cell-based
I'd be grateful if you could share measured log10(EC50) for these entries.
On a log10 scale: recorded EC50, unit nM.

Example molecules with recorded log10(EC50):
# input Any idea what log10(EC50) was measured for "CN(C(=O)COc1ccc2ccoc2c1)[C@H](CN1CC[C@H](O)C1)c1ccccc1" ?
# output -1.92

# input Please answer likewise for "COc1cccc([C@@H](CN2CC[C@H](O)C2)N(C)C(=O)COc2ccc(NS(C)(=O)=O)c3ncccc23)c1"
# output -1.49

# input Please answer likewise for "CN(C(=O)COc1ccc2ccoc2c1)[C@H](CN1CC[C@H](O)C1)c1cccc(NS(C)(=O)=O)c1"
# output 0.05

# input Please answer likewise for "CN(C(=O)COc1ccc(NS(C)(=O)=O)c2ncccc12)[C@H](CN1CC[C@H](O)C1)c1cccc(C(F)(F)F)c1"
# output -0.17

# input Please answer likewise for "Cc1cccc([C@@H](CN2CC[C@H](O)C2)N(C)C(=O)COc2ccc(NS(C)(=O)=O)c3ncccc23)c1"
# output -1.01

State the recorded log10(EC50) for every item in the following list.
1. CN(C(=O)COc1ccc2c(c1)CCCN2)[C@H](CN1CC[C@H](O)C1)c1ccccc1
2. CN(C(=O)COc1ccc([N+](=O)[O-])c2c1NCCC2)[C@H](CN1CC[C@H](O)C1)c1ccccc1
3. CN(C(=O)COc1ccnc2ccc(NS(C)(=O)=O)cc12)[C@H](CN1CC[C@H](O)C1)c1ccccc1
4. CN(C(=O)COc1ccc(NC(=N)N)c2ncccc12)[C@H](CN1CC[C@H](O)C1)c1ccccc1
5. CN(C(=O)COc1ccc(NS(C)(=O)=O)c2nccnc12)[C@H](CN1CC[C@H](O)C1)c1ccccc1
6. CN1CCCc2c(OCC(=O)N(C)[C@H](CN3CC[C@H](O)C3)c3ccccc3)ccc(NS(C)(=O)=O)c21
7. CN(C(=O)COc1ccc2c(c1)OCO2)[C@H](CN1CC[C@H](O)C1)c1cccc(NS(C)(=O)=O)c1
8. CN(C(=O)COc1ccc(NS(C)(=O)=O)c2ncccc12)[C@H](CN1CC[C@H](O)C1)c1cccc(N)c1

# output
0.09
-1.74
0.08
-2.15
0.32
-2.10
-0.02
-2.22

State the recorded log10(EC50) for every item in the following list.
1. CN(C(=O)COc1ccc([N+](=O)[O-])c2cccnc12)[C@H](CN1CC[C@H](O)C1)c1ccccc1
2. CN(C(=O)COc1ccc(NS(C)(=O)=O)c2c1CCCN2)[C@H](CN1CC[C@H](O)C1)c1ccccc1
3. CN(C(=O)COc1ccc(NS(C)(=O)=O)c2ncccc12)[C@H](CN1CC[C@H](O)C1)c1cccc(NS(C)(=O)=O)c1
4. CC(=O)Nc1cccc([C@@H](CN2CC[C@H](O)C2)N(C)C(=O)COc2ccc(NS(C)(=O)=O)c3ncccc23)c1

# output
1. -1.82
2. -2.52
3. -1.44
4. -1.18
